assay: Hydrodynamic diameter and colloidal stability of aggregates by dynamic light scattering; type: physicochemical; settings: 3.75 μM in PBS from DMSO stock, 37 °C
Reported values of mean size (hydrodynamic diameter) for individual entries

molecule	recorded.result
COc1ccc2[nH]cc(CCNC(=O)CNC(=O)CCC(=O)OC/C(C)=C/C=C/C(C)=C/C=C/C=C(C)/C=C/C=C(C)/C=C/C3=C(C)CCCC3(C)C)c2c1 [Compound 18, 8′-Apo-β-carotenol-melatonin conjugate]	182.80 nm
COc1ccc2[nH]cc(CCNC(=O)CNC(=O)CCC(=O)O[C@@H]3CC(C)=C(/C=C/C(C)=C/C=C/C(C)=C/C=C/C=C(C)/C=C/C=C(C)/C=C/C4=C(C)C[C@@H](OC(=O)CCC(=O)NCC(=O)NCCc5c[nH]c6ccc(OC)cc56)CC4(C)C)C(C)(C)C3)c2c1 [Compound 14, Zeaxanthin-bismelatonin conjugate]	91.77 nm

--- query ---
Give the reported value of mean size (hydrodynamic diameter) for this record: COc1ccc2[nH]cc(CCNC(=O)CNC(=O)CCC(=O)O[C@@H]3CC(C)=C(/C=C/C(C)=C/C=C/C(C)=C/C=C/C=C(C)/C=C/C=C(C)/C=C/C4=C(C)CCCC4(C)C)C(C)(C)C3)c2c1 [Compound 15, Cryptoxanthin-melatonin conjugate]
826.80 nm

* * *

// zeta potential lookup, one value per entry
assay: Hydrodynamic diameter and colloidal stability of aggregates by dynamic light scattering; format: physicochemical; details: 3.75 μM in PBS from DMSO stock, 37 °C
Reply numerically in mV, unit not repeated.

Would you please look over these solved cases?
compound	zeta potential / mV
CC1=C(/C=C/C(C)=C/C=C/C(C)=C/C=C/C=C(C)/C=C/C=C(C)/C=C/C2=C(C)C[C@@H](OC(=O)CCC(=O)O)CC2(C)C)C(C)(C)C[C@H](O)C1 [Compound 11, Zeaxanthin monossuccinate]	77.3
COc1ccc2[nH]cc(CCNC(=O)CNC(=O)CCC(=O)O[C@@H]3CC(C)=C(/C=C/C(C)=C/C=C/C(C)=C/C=C/C=C(C)/C=C/C=C(C)/C=C/C(=O)[C@]4(C)C[C@@H](OC(=O)CCC(=O)NCC(=O)NCCc5c[nH]c6ccc(OC)cc56)CC4(C)C)C(C)(C)C3)c2c1 [Compound 17, Capsanthin-dimelatonin conjugate]	−27.5
CC1=C[C@H](OC(=O)CCC(=O)O)CC(C)(C)[C@H]1/C=C/C(C)=C/C=C/C(C)=C/C=C/C=C(C)/C=C/C=C(C)/C=C/C1=C(C)C[C@@H](OC(=O)CCC(=O)O)CC1(C)C [Compound 10, Lutein bissuccinate]	0.0

Read the entry COc1ccc2[nH]cc(CCNC(=O)CNC(=O)CCC(=O)O[C@@H]3CC(C)=C(/C=C/C(C)=C/C=C/C(C)=C/C=C/C=C(C)/C=C/C=C(C)/C=C/C4C(C)=C[C@@H](OC(=O)CCC(=O)NCC(=O)NCCc5c[nH]c6ccc(OC)cc56)CC4(C)C)C(C)(C)C3)c2c1 (stereo partly shown) [Compound 16, Lutein-bismelatonin conjugate] and write its reported zeta potential.
−1.4

* * *

assay: Hydrodynamic diameter and colloidal stability of aggregates by dynamic light scattering; format: physicochemical; settings: 1.25 μM in PBS from DMSO stock, 37 °C
readout.name: mean size (hydrodynamic diameter) (nm)
Use nm as the unit, but write only the number.

compound	mean size (hydrodynamic diameter) [nm]
COc1ccc2[nH]cc(CCNC(=O)CNC(=O)CCC(=O)O[C@@H]3CC(C)=C(/C=C/C(C)=C/C=C/C(C)=C/C=C/C=C(C)/C=C/C=C(C)/C=C/C4=C(C)C[C@@H](O)CC4(C)C)C(C)(C)C3)c2c1 [Compound 13, Zeaxanthin-monomelatonin conjugate]	364.50
COc1ccc2[nH]cc(CCNC(=O)CNC(=O)CCC(=O)OC/C(C)=C/C=C/C(C)=C/C=C/C=C(C)/C=C/C=C(C)/C=C/C3=C(C)CCCC3(C)C)c2c1 [Compound 18, 8′-Apo-β-carotenol-melatonin conjugate]	127.50
COc1ccc2[nH]cc(CCNC(=O)CNC(=O)CCC(=O)O[C@@H]3CC(C)=C(/C=C/C(C)=C/C=C/C(C)=C/C=C/C=C(C)/C=C/C=C(C)/C=C/C4C(C)=C[C@@H](OC(=O)CCC(=O)NCC(=O)NCCc5c[nH]c6ccc(OC)cc56)CC4(C)C)C(C)(C)C3)c2c1 (stereo partly shown) [Compound 16, Lutein-bismelatonin conjugate]	142.50
COc1ccc2[nH]cc(CCNC(=O)CNC(=O)CCC(=O)O[C@@H]3CC(C)=C(/C=C/C(C)=C/C=C/C(C)=C/C=C/C=C(C)/C=C/C=C(C)/C=C/C4=C(C)CCCC4(C)C)C(C)(C)C3)c2c1 [Compound 15, Cryptoxanthin-melatonin conjugate]	74.91
CC1=C[C@H](OC(=O)CCC(=O)O)CC(C)(C)[C@H]1/C=C/C(C)=C/C=C/C(C)=C/C=C/C=C(C)/C=C/C=C(C)/C=C/C1=C(C)C[C@@H](OC(=O)CCC(=O)O)CC1(C)C [Compound 10, Lutein bissuccinate]	263.3

Please supply the value of reported mean size (hydrodynamic diameter) for the item COc1ccc2[nH]cc(CCNC(=O)CNC(=O)CCC(=O)O[C@@H]3CC(C)=C(/C=C/C(C)=C/C=C/C(C)=C/C=C/C=C(C)/C=C/C=C(C)/C=C/C(=O)[C@]4(C)C[C@@H](OC(=O)CCC(=O)NCC(=O)NCCc5c[nH]c6ccc(OC)cc56)CC4(C)C)C(C)(C)C3)c2c1 [Compound 17, Capsanthin-dimelatonin conjugate]
101.60

State its mean size (hydrodynamic diameter) for this compound: CC1=C(/C=C/C(C)=C/C=C/C(C)=C/C=C/C=C(C)/C=C/C=C(C)/C=C/C(=O)[C@]2(C)C[C@@H](OC(=O)CCC(=O)O)CC2(C)C)C(C)(C)C[C@H](OC(=O)CCC(=O)O)C1 [Compound 9, Capsanthin bissuccinate]
28.78

* * *

Each record here notes measured zeta potential.
experiment: Hydrodynamic diameter and colloidal stability of aggregates by dynamic light scattering; type: physicochemical; conditions: 0.3125 μM in PBS from DMSO stock, 37 °C
Field format: number, assumed mV, no unit text.

molecule	zeta potential, mV
CC1=C(/C=C/C(C)=C/C=C/C(C)=C/C=C/C=C(C)/C=C/C=C(C)/C=C/C2=C(C)C[C@@H](OC(=O)CCC(=O)O)CC2(C)C)C(C)(C)C[C@H](OC(=O)CCC(=O)O)C1 [Compound 7, Zeaxanthin bissuccinate]	27.5
COc1ccc2[nH]cc(CCNC(=O)CNC(=O)CCC(=O)O[C@@H]3CC(C)=C(/C=C/C(C)=C/C=C/C(C)=C/C=C/C=C(C)/C=C/C=C(C)/C=C/C4=C(C)CCCC4(C)C)C(C)(C)C3)c2c1 [Compound 15, Cryptoxanthin-melatonin conjugate]	−13.4
COc1ccc2[nH]cc(CCNC(=O)CNC(=O)CCC(=O)O[C@@H]3CC(C)=C(/C=C/C(C)=C/C=C/C(C)=C/C=C/C=C(C)/C=C/C=C(C)/C=C/C4C(C)=C[C@@H](OC(=O)CCC(=O)NCC(=O)NCCc5c[nH]c6ccc(OC)cc56)CC4(C)C)C(C)(C)C3)c2c1 (stereo partly shown) [Compound 16, Lutein-bismelatonin conjugate]	−12.2

Identify the reported zeta potential for the following entry. COc1ccc2[nH]cc(CCNC(=O)CNC(=O)CCC(=O)O[C@@H]3CC(C)=C(/C=C/C(C)=C/C=C/C(C)=C/C=C/C=C(C)/C=C/C=C(C)/C=C/C4=C(C)C[C@@H](O)CC4(C)C)C(C)(C)C3)c2c1 [Compound 13, Zeaxanthin-monomelatonin conjugate]
16.0

* * *

experiment: Hydrodynamic diameter and colloidal stability of aggregates by dynamic light scattering; type: physicochemical; conditions: 0.625 μM in PBS; sd^2/mean size^2
param class (str): category from PDI; see ranges zone 1 = under 0.03, zone 2 = from 0.03 up to 0.07, zone 3 = 0.07 and over

Example results:
molecule	class.assignment
COc1ccc2[nH]cc(CCNC(=O)CNC(=O)CCC(=O)O[C@@H]3CC(C)=C(/C=C/C(C)=C/C=C/C(C)=C/C=C/C=C(C)/C=C/C=C(C)/C=C/C(=O)[C@]4(C)C[C@@H](OC(=O)CCC(=O)NCC(=O)NCCc5c[nH]c6ccc(OC)cc56)CC4(C)C)C(C)(C)C3)c2c1 [Compound 17, Capsanthin-dimelatonin conjugate]	zone 3
CC1=C(/C=C/C(C)=C/C=C/C(C)=C/C=C/C=C(C)/C=C/C=C(C)/C=C/C(=O)[C@]2(C)C[C@@H](OC(=O)CCC(=O)O)CC2(C)C)C(C)(C)C[C@H](OC(=O)CCC(=O)O)C1 [Compound 9, Capsanthin bissuccinate]	zone 1
CC1=C[C@H](OC(=O)CCC(=O)O)CC(C)(C)[C@H]1/C=C/C(C)=C/C=C/C(C)=C/C=C/C=C(C)/C=C/C=C(C)/C=C/C1=C(C)C[C@@H](OC(=O)CCC(=O)O)CC1(C)C [Compound 10, Lutein bissuccinate]	zone 2
COc1ccc2[nH]cc(CCNC(=O)CNC(=O)CCC(=O)O[C@@H]3CC(C)=C(/C=C/C(C)=C/C=C/C(C)=C/C=C/C=C(C)/C=C/C=C(C)/C=C/C4C(C)=C[C@@H](OC(=O)CCC(=O)NCC(=O)NCCc5c[nH]c6ccc(OC)cc56)CC4(C)C)C(C)(C)C3)c2c1 (stereo partly drawn) [Compound 16, Lutein-bismelatonin conjugate]	zone 2
COc1ccc2[nH]cc(CCNC(=O)CNC(=O)CCC(=O)O[C@@H]3CC(C)=C(/C=C/C(C)=C/C=C/C(C)=C/C=C/C=C(C)/C=C/C=C(C)/C=C/C4=C(C)C[C@@H](O)CC4(C)C)C(C)(C)C3)c2c1 [Compound 13, Zeaxanthin-monomelatonin conjugate]	zone 2

Which band does CC1=C(/C=C/C(C)=C/C=C/C(C)=C/C=C/C=C(C)/C=C/C=C(C)/C=C/C2=C(C)C[C@@H](OC(=O)CCC(=O)O)CC2(C)C)C(C)(C)C[C@H](O)C1 [Compound 11, Zeaxanthin monossuccinate] fall in?
zone 1

Place this molecule in its band: COc1ccc2[nH]cc(CCNC(=O)CNC(=O)CCC(=O)O[C@@H]3CC(C)=C(/C=C/C(C)=C/C=C/C(C)=C/C=C/C=C(C)/C=C/C=C(C)/C=C/C4=C(C)CCCC4(C)C)C(C)(C)C3)c2c1 [Compound 15, Cryptoxanthin-melatonin conjugate]
zone 3

Determine which band this molecule sits in: CC1=C(/C=C/C(C)=C/C=C/C(C)=C/C=C/C=C(C)/C=C/C=C(\C)COC(=O)CCC(=O)O)C(C)(C)CCC1 [Compound 6, 8′-Apo-β-carotenol succinate]
zone 2

Could you tell me which band CC1=C(/C=C/C(C)=C/C=C/C(C)=C/C=C/C=C(C)/C=C/C=C(C)/C=C/C2=C(C)C[C@@H](OC(=O)CCC(=O)O)CC2(C)C)C(C)(C)C[C@H](OC(=O)CCC(=O)O)C1 [Compound 7, Zeaxanthin bissuccinate] belongs to?
zone 1
